# tested_on: Somatostatin receptor type 2 (Homo sapiens)
observable: Ki (nM)
Write it as a number; the unit nM goes unstated.

Here's what some known entries look like.
chemical_smiles: COc1cc2cc(c1Cl)N(C)C(=O)C[C@H](OC(=O)[C@H](C)N(C)C(=O)CCC(C)(C)SSC[C@H](NC(=O)[C@@H]1CSSC[C@H](NC(=O)[C@H](N)Cc3ccccc3)C(=O)N[C@@H](Cc3ccc(O)cc3)C(=O)N[C@H](Cc3c[nH]c4ccccc34)C(=O)N[C@@H](CCCCN)C(=O)N[C@@H]([C@@H](C)O)C(=O)N1)C(N)=O)[C@@]1(C)O[C@H]1[C@H](C)[C@@H]1C[C@@](O)(NC(=O)O1)[C@H](OC)/C=C/C=C(\C)C2
reported: 0.075
--
chemical_smiles: COc1cc2cc(c1Cl)N(C)C(=O)C[C@H](OC(=O)[C@H](C)N(C)C(=O)CCSSC[C@@H](CO)NC(=O)[C@@H]1CSSC[C@H](NC(=O)[C@H](N)Cc3ccccc3)C(=O)N[C@@H](Cc3ccc(O)cc3)C(=O)N[C@H](Cc3c[nH]c4ccccc34)C(=O)N[C@@H](CCCCN)C(=O)N[C@@H]([C@@H](C)O)C(=O)N1)[C@@]1(C)O[C@H]1[C@H](C)[C@@H]1C[C@@](O)(NC(=O)O1)[C@H](OC)/C=C/C=C(\C)C2
reported: 0.018
--
chemical_smiles: COc1cc2cc(c1Cl)N(C)C(=O)C[C@H](OC(=O)[C@H](C)N(C)C(=O)CCSSC(C)(C)[C@H](NC(=O)[C@@H]1CSSC[C@H](NC(=O)[C@H](N)Cc3ccccc3)C(=O)N[C@@H](Cc3ccc(O)cc3)C(=O)N[C@H](Cc3c[nH]c4ccccc34)C(=O)N[C@@H](CCCCN)C(=O)N[C@@H]([C@@H](C)O)C(=O)N1)C(N)=O)[C@@]1(C)O[C@H]1[C@H](C)[C@@H]1C[C@@](O)(NC(=O)O1)[C@H](OC)/C=C/C=C(\C)C2
reported: 0.015
--
chemical_smiles: COc1cc2cc(c1Cl)N(C)C(=O)C[C@H](OC(=O)[C@H](C)N(C)C(=O)CCSSCCNC(=O)[C@@H]1CSSC[C@H](NC(=O)[C@H](N)Cc3ccccc3)C(=O)N[C@@H](Cc3ccc(O)cc3)C(=O)N[C@H](Cc3c[nH]c4ccccc34)C(=O)N[C@@H](CCCCN)C(=O)N[C@@H]([C@@H](C)O)C(=O)N1)[C@@]1(C)O[C@H]1[C@H](C)[C@@H]1C[C@@](O)(NC(=O)O1)[C@H](OC)/C=C/C=C(\C)C2
reported: 0.061

Task: # input molecule: COc1cc2cc(c1Cl)N(C)C(=O)C[C@H](OC(=O)[C@H](C)N(C)C(=O)CCSSCCOc1ccc(C[C@@H](N)C(=O)N[C@H]3CSSC[C@@H](C(=O)N[C@H](C(=O)O)[C@@H](C)O)NC(=O)[C@H]([C@@H](C)O)NC(=O)[C@H](CCCCN)NC(=O)[C@@H](Cc4c[nH]c5ccccc45)NC(=O)[C@H](Cc4ccc(O)cc4)NC3=O)cc1)[C@@]1(C)O[C@H]1[C@H](C)[C@@H]1C[C@@](O)(NC(=O)O1)[C@H](OC)/C=C/C=C(\C)C2 ; wanted: its Ki
Output: 0.015

* * *

Quick reference: clearance of the listed items.
# experiment_notes: Clearance in Beagle dog at 0.1 mg/kg, iv
# Type: ADME, organism-based, Canis lupus familiaris
# experimental_context: in vivo
Express it in mL/min/kg; write the number only.

chemical_smiles: COc1cc2cc(c1Cl)N(C)C(=O)C[C@H](OC(=O)[C@H](C)N(C)C(=O)CCSSC[C@H](NC(=O)[C@@H]1CSSC[C@H](NC(=O)[C@H](N)Cc3ccccc3)C(=O)N[C@@H](Cc3ccc(O)cc3)C(=O)N[C@H](Cc3c[nH]c4ccccc34)C(=O)N[C@@H](CCCCN)C(=O)N[C@@H]([C@@H](C)O)C(=O)N1)C(N)=O)[C@@]1(C)O[C@H]1[C@H](C)[C@@H]1C[C@@](O)(NC(=O)O1)[C@H](OC)/C=C/C=C(\C)C2
units: mL/min/kg
clearance: 1.66

For the next question, use this molecule.
Task: Using the record for COc1cc2cc(c1Cl)N(C)C(=O)C[C@H](OC(=O)[C@H](C)N(C)C(=O)CCSSC(C)(C)[C@H](NC(=O)[C@@H]1CSSC[C@H](NC(=O)[C@H](N)Cc3ccccc3)C(=O)N[C@@H](Cc3ccc(O)cc3)C(=O)N[C@H](Cc3c[nH]c4ccccc34)C(=O)N[C@@H](CCCCN)C(=O)N[C@@H]([C@@H](C)O)C(=O)N1)C(N)=O)[C@@]1(C)O[C@H]1[C@H](C)[C@@H]1C[C@@](O)(NC(=O)O1)[C@H](OC)/C=C/C=C(\C)C2 , report its clearance.
Output: 1.09

* * *

# experiment_notes: AUC (0 to 6 hrs) in Beagle dog at 0.1 mg/kg, iv
# Format: ADME, organism-based, Canis lupus familiaris
# Parameters: dose 0.1 mg/kg, time < 6 hr, route intravenous
# experimental_context: in vivo
Reported AUC(0-t) at 6 h values are given for each entry in this list.
Give the value in µM·h but do not write µM·h after it.

chemical_smiles: COc1cc2cc(c1Cl)N(C)C(=O)C[C@H](OC(=O)[C@H](C)N(C)C(=O)CCSSC[C@H](NC(=O)[C@@H]1CSSC[C@H](NC(=O)[C@H](N)Cc3ccccc3)C(=O)N[C@@H](Cc3ccc(O)cc3)C(=O)N[C@H](Cc3c[nH]c4ccccc34)C(=O)N[C@@H](CCCCN)C(=O)N[C@@H]([C@@H](C)O)C(=O)N1)C(N)=O)[C@@]1(C)O[C@H]1[C@H](C)[C@@H]1C[C@@](O)(NC(=O)O1)[C@H](OC)/C=C/C=C(\C)C2
units: µM·h
AUC(0-t) at 6 h: 0.47

Then there is this compound:
Task: I would be grateful if you could share the reported AUC(0-t) at 6 h for COc1cc2cc(c1Cl)N(C)C(=O)C[C@H](OC(=O)[C@H](C)N(C)C(=O)CCSSC(C)(C)[C@H](NC(=O)[C@@H]1CSSC[C@H](NC(=O)[C@H](N)Cc3ccccc3)C(=O)N[C@@H](Cc3ccc(O)cc3)C(=O)N[C@H](Cc3c[nH]c4ccccc34)C(=O)N[C@@H](CCCCN)C(=O)N[C@@H]([C@@H](C)O)C(=O)N1)C(N)=O)[C@@]1(C)O[C@H]1[C@H](C)[C@@H]1C[C@@](O)(NC(=O)O1)[C@H](OC)/C=C/C=C(\C)C2 .
Output: 0.769

* * *

Measured Cmax of individual entries
# experiment_notes: Cmax in Beagle dog at 0.1 mg/kg, iv
# Format: ADME, organism-based, Canis lupus familiaris
# Design: dose 0.1 mg/kg, route intravenous
# experimental_context: in vivo
Dear colleague, please return just the value in nM, with no unit written.

chemical_smiles: COc1cc2cc(c1Cl)N(C)C(=O)C[C@H](OC(=O)[C@H](C)N(C)C(=O)CCSSC[C@H](NC(=O)[C@@H]1CSSC[C@H](NC(=O)[C@H](N)Cc3ccccc3)C(=O)N[C@@H](Cc3ccc(O)cc3)C(=O)N[C@H](Cc3c[nH]c4ccccc34)C(=O)N[C@@H](CCCCN)C(=O)N[C@@H]([C@@H](C)O)C(=O)N1)C(N)=O)[C@@]1(C)O[C@H]1[C@H](C)[C@@H]1C[C@@](O)(NC(=O)O1)[C@H](OC)/C=C/C=C(\C)C2
units: nM
Cmax: 708

Task: // returns reported Cmax for input COc1cc2cc(c1Cl)N(C)C(=O)C[C@H](OC(=O)[C@H](C)N(C)C(=O)CCSSC(C)(C)[C@H](NC(=O)[C@@H]1CSSC[C@H](NC(=O)[C@H](N)Cc3ccccc3)C(=O)N[C@@H](Cc3ccc(O)cc3)C(=O)N[C@H](Cc3c[nH]c4ccccc34)C(=O)N[C@@H](CCCCN)C(=O)N[C@@H]([C@@H](C)O)C(=O)N1)C(N)=O)[C@@]1(C)O[C@H]1[C@H](C)[C@@H]1C[C@@](O)(NC(=O)O1)[C@H](OC)/C=C/C=C(\C)C2
Output: 867

* * *

# tested_on: Somatostatin receptor type 2 (Homo sapiens, UniProt P30874)
# Sequence (P30874 whole entry): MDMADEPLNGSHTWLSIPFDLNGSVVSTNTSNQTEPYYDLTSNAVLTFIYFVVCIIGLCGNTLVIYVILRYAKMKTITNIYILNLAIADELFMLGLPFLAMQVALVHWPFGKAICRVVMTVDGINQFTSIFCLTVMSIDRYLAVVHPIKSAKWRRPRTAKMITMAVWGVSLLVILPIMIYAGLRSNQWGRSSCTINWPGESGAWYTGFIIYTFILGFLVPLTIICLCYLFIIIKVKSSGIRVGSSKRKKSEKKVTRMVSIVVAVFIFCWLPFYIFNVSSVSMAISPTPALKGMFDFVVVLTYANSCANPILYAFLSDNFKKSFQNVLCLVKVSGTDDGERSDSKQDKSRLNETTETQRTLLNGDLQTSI
observable: pKi
Hey, just a heads up that pKi is the negative log base 10 of the concentration in molar.

Task: Query: pKi; subject: COc1cc2cc(c1Cl)N(C)C(=O)C[C@H](OC(=O)[C@H](C)N(C)C(=O)CCSSC[C@H](NC(=O)[C@@H]1CSSC[C@H](NC(=O)[C@H](N)Cc3ccccc3)C(=O)N[C@@H](Cc3ccc(O)cc3)C(=O)N[C@H](Cc3c[nH]c4ccccc34)C(=O)N[C@@H](CCCCN)C(=O)N[C@@H]([C@@H](C)O)C(=O)N1)C(=O)O)[C@@]1(C)O[C@H]1[C@H](C)[C@@H]1C[C@@](O)(NC(=O)O1)[C@H](OC)/C=C/C=C(\C)C2
Output: 10.89
